Listed below: Max. Effect (%) values for each entry.
Molecular target: 17β-HSD10 (Homo sapiens)
Construct: Histev (histidine tag with TEV site) (N, cleaved yes); made in house; host or cells: E. coli BL21-CodonPlus
Sequence (Q99714 1-261): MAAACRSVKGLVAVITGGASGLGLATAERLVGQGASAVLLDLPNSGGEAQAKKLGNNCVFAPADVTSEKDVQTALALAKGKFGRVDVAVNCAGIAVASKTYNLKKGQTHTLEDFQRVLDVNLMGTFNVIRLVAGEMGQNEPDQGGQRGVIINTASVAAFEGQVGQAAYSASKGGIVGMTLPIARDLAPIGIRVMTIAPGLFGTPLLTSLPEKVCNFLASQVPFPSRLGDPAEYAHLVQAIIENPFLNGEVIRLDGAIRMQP
Test: 17β-HSD10 (ABAD) enzyme inhibition assay, NADH oxidation read at 340 nm (primary screen and dose response)
Format: biochemical
Settings: recombinant 17βHSD10 enzyme assay

Check out these entries, answers already filled in.
• COCCn1cnc(CN(C)c2cccc(NC(=O)c3ccccc3F)c2)c1 = 0%
• CCOc1cccc(-c2ccccc2[C@@H]2CCCN2C(=O)c2sccc2Cl)c1 (racemic) = 92%
• CC(C)OCCN(C(=O)c1ccccc1F)c1cccc(N(C)Cc2c[nH]cn2)c1 = 76%
• Cc1ccsc1C(=O)N1CCC[C@@H]1c1ccccc1-c1cccnc1 = 94%
• Cc1ccsc1C(=O)N1CCC[C@H]1c1ccccc1-c1cccc(C(F)(F)F)c1 [ESC1002320] = 99%

What is its Max. Effect (%) for 17β-HSD10 (Homo sapiens)? Entry: `Cc1ccsc1C(=O)N1CCC[C@@H]1c1ccccc1-c1ccc(C2CC2)cc1`
93%

Same read-out for O=C(c1sccc1Cl)N1CCC[C@H]1c1ccccc1-c1ccc2[nH]ncc2c1 (racemic) ?
99%

Subsequent entry: `CC(C)CN(C(=O)c1ccccc1F)c1cccc(-n2ccnc2)c1`
−2%

Another molecule to check: `CC(C)CN(C(=O)c1ccccc1F)c1cccc(NCC(N)=O)c1`
13%
